# subject.of.test: Alpha-1B adrenergic receptor (Rattus norvegicus)
# Sequence (P15823 whole entry): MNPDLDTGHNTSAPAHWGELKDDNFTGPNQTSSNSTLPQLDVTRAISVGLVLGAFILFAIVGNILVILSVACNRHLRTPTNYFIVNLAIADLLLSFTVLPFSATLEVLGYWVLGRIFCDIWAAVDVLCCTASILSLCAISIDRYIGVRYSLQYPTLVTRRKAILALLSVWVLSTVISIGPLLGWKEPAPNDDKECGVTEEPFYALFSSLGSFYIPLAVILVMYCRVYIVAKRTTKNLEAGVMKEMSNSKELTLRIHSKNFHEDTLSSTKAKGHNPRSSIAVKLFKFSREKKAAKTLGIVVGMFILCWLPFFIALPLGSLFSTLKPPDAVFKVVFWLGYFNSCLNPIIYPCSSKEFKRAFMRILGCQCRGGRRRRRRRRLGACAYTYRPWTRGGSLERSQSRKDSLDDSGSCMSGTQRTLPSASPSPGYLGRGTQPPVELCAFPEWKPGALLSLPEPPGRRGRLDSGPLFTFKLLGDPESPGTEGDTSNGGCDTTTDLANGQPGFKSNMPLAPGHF
# protocol.summary: DRUGMATRIX: Alpha-1B adrenergic receptor radioligand binding (ligand: prazosin)
# Format: cell membranes, Wistar, Liver, Membrane
# condition.context: Not Active = under 50% inhibition at 10 µM; read-out: Ki
pKi: −log10 of the molar value.
The following compounds are shown together with reported pKi values.

compound	pKi
CC(C)C[C@H]1C(=O)N2CCC[C@H]2[C@]2(O)O[C@](NC(=O)[C@@H]3C=C4c5cccc6[nH]cc(c56)C[C@H]4N(C)C3)(C(C)C)C(=O)N12	8.10
CN(C)CCC=C1c2ccccc2CCc2ccccc21	7.38
CCN(CC)CCCC(C)Nc1c2ccc(Cl)cc2nc2ccc(OC)cc12 (stereo unspecified)	5.72
N=C(N)c1ccc(OCCCCCOc2ccc(C(=N)N)cc2)cc1	6.27
CN1CCN(C(c2ccccc2)c2ccccc2)CC1	5.86
CN1CCCC(CN2c3ccccc3Sc3ccccc32)C1 (stereo unspecified)	7.47

----------
# subject.of.test: Type-2 angiotensin II receptor (Homo sapiens)
# Sequence (P50052 whole entry): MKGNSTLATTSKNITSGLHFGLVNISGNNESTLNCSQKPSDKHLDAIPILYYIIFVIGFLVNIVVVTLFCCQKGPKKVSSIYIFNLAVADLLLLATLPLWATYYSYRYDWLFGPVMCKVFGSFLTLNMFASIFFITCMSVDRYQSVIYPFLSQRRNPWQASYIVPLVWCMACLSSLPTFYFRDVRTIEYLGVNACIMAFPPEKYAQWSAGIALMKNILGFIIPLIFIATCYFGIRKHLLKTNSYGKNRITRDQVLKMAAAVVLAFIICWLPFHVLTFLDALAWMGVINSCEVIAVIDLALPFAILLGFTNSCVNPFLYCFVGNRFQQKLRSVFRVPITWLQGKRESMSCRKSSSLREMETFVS
# protocol.summary: biochemical
# Format: cell-based, CHO-K1
# condition.context: read-out: IC50
pIC50: −log10 of the molar value.
property: pIC50

compound	property	recorded.value
Clc1ccc(COC(Cn2ccnc2)c2ccc(Cl)cc2Cl)c(Cl)c1 (stereo unspecified) [MICONAZOLE]	pIC50	4.62

----------
# subject.of.test: Alpha-1B adrenergic receptor (Rattus norvegicus)
# protocol.summary: DRUGMATRIX: Alpha-1B adrenergic receptor radioligand binding (ligand: prazosin)
# Assay type: cell membranes, Wistar, Liver, Membrane
# condition.context: Not Active = under 50% inhibition at 10 µM; read-out: IC50
property: log10 IC50 (log10 of the value in nM)

compound	log10 IC50
CN(C)CCC=C1c2ccccc2CCc2ccccc21	1.88
CCN(CC)CCCC(C)Nc1c2ccc(Cl)cc2nc2ccc(OC)cc12 (stereo unspecified)	3.53
N=C(N)c1ccc(OCCCCCOc2ccc(C(=N)N)cc2)cc1	2.99
CC(C)C[C@H]1C(=O)N2CCC[C@H]2[C@]2(O)O[C@](NC(=O)[C@@H]3C=C4c5cccc6[nH]cc(c56)C[C@H]4N(C)C3)(C(C)C)C(=O)N12	1.15
CN1CCCC(CN2c3ccccc3Sc3ccccc32)C1 (stereo unspecified)	1.79
CN1CCN(C(c2ccccc2)c2ccccc2)CC1	3.40

----------
# protocol.summary: DRUGMATRIX: Sigma2 radioligand binding (ligand: [3H] Ifenprodil)
# Format: cell membranes, Rattus norvegicus, Wistar, Brain, Membrane
# condition.context: Not Active = under 50% inhibition at 10 µM

compound	Ki
CC(=O)OC[C@H]1O[C@@H](n2ncc(=O)[nH]c2=O)[C@H](OC(C)=O)[C@@H]1OC(C)=O [AZARIBINE]	Not Active
N=C(N)c1ccc(OCCCCCOc2ccc(C(=N)N)cc2)cc1 [PENTAMIDINE]	Not Active
O=C1C[C@@H]2OCC=C3CN4CC[C@]56c7ccccc7N1[C@H]5[C@H]2[C@H]3C[C@H]46 [STRYCHNINE]	Not Active
Cc1ccc(C(=O)c2ccc(CC(=O)O)n2C)cc1 [TOLMETIN]	Not Active
CCC1=C(C)CN(C(=O)NCCc2ccc(S(=O)(=O)NC(=O)N[C@H]3CC[C@H](C)CC3)cc2)C1=O [GLIMEPIRIDE]	Not Active
O=C(O)CCCc1cccs1	Not Active
CN1CCC(=C2c3ccccc3CC(=O)c3sccc32)CC1 [KETOTIFEN]	Not Active
